# tested_target: CDK2 (Homo sapiens, UniProt P24941)
# Construct: host or cells: HEK293-CDK2-Hibit
# assay_remarks: HiBit Assay Protocol for CDK2 (HIBIT protein quantification, degradation)
# Assay type: cell-based
# protocol_conditions: HEK293-CDK2-Hibit cells, compound treatment for 6 hours
measurement_name: CDK2 HIBIT Protein Quantification Maximum (%)
Provide only the numeric value, understood in %.

Item under review: Cn1c(=O)n(C2CCC(=O)NC2=O)c2cccc(N3CCC(Cn4cc(S(=O)(=O)N5CCC(Nc6ncc7c(n6)N([C@@H]6CCC[C@@H](O)C6)C(=O)C76CC6)CC5)cn4)CC3)c21 (some centres unmarked) . Reported CDK2 HIBIT Protein Quantification Maximum?
76

So what's the measured CDK2 HIBIT Protein Quantification Maximum for this one? CC1CCCC1N1C(=O)C2(CC2)c2cnc(NC3CCN(S(=O)(=O)N4CCCN(C(=O)CCCCCc5ccc6c(c5)n(C)c(=O)n6C5CCC(=O)NC5=O)CC4)CC3)nc21 (centres unmarked)
24

Which measured CDK2 HIBIT Protein Quantification Maximum value corresponds to CC1CCCC1N1C(=O)C2(CC2)c2cnc(NC3CCN(S(=O)(=O)N4CC5CN(C(=O)CCc6ccc7c(c6)n(C)c(=O)n7C6CCC(=O)NC6=O)CC5C4)CC3)nc21 (centres unmarked) ?
25

// CDK2 HIBIT Protein Quantification Maximum lookup, key: CC1CCCC1N1C(=O)C2(CC2)c2cnc(NC3CCN(S(=O)(=O)N4CC5(CCN(C(=O)CCCCCCCc6cccc7c6n(C)c(=O)n7C6CCC(=O)NC6=O)CC5)C4)CC3)nc21 (centres unmarked)
56.5

CDK2 HIBIT Protein Quantification Maximum for CC1CCCC1N1C(=O)C2(CC2)c2cnc(NC3CCN(S(=O)(=O)N4CC5(CCN(C(=O)CCCc6cccc7c6n(C)c(=O)n7C6CCC(=O)NC6=O)CC5)C4)CC3)nc21 (centres unmarked) ?
72

# CDK2 HIBIT Protein Quantification Maximum lookup, item CC1CN(C(C)c2cccc(S(=O)(=O)N3CC[C@H](Nc4ncc5c(n4)N([C@@H]4CCC[C@@H](O)C4)C(=O)C54CC4)[C@H](F)C3)c2)CCC1c1ccc2c(N3CCC(=O)NC3=O)nn(C)c2c1 (some centres unmarked)
88

For CC1CCCC1N1C(=O)C2(CC2)c2cnc(NC3CCN(S(=O)(=O)N4CCN(C(=O)CCCc5cccc6c5n(C)c(=O)n6C5CCC(=O)NC5=O)CC4)CC3)nc21 (centres unmarked) , what is its reported CDK2 HIBIT Protein Quantification Maximum?
57

Using the record for CC1CCCC1N1C(=O)C2(CC2)c2cnc(NC3CCN(S(=O)(=O)N4CCCN(C(=O)CCCCCc5cccc6c5n(C)c(=O)n6C5CCC(=O)NC5=O)CC4)CC3)nc21 (centres unmarked) , report its CDK2 HIBIT Protein Quantification Maximum.
60

Entry CC1CCCC1N1C(=O)C2(CC2)c2cnc(NC3CCN(S(=O)(=O)N4CCCN(C(=O)CCCc5cccc6c5n(C)c(=O)n6C5CCC(=O)NC5=O)CC4)CC3)nc21 (centres unmarked) has what CDK2 HIBIT Protein Quantification Maximum?
42

So what's the measured CDK2 HIBIT Protein Quantification Maximum for this one? CC1CCCC1N1C(=O)C2(CC2)c2cnc(NC3CCN(S(=O)(=O)N4CC5(CCCN(CCOc6cccc7c6n(C)c(=O)n7C6CCC(=O)NC6=O)C5)C4)CC3)nc21 (centres unmarked)
45

# query: CDK2 HIBIT Protein Quantification Maximum of entry O=C1CCC(N2Cc3cc(CN4CC(Oc5cccc(S(=O)(=O)c6ccc(Nc7ncc8c(n7)N([C@@H]7CCC[C@@H](O)C7)C(=O)C87CC7)cc6)c5)C4)ccc3C2=O)C(=O)N1 (some centres unmarked)
54

Fill in the blank: the reported CDK2 HIBIT Protein Quantification Maximum of CC1CCCC1N1C(=O)C2(CC2)c2cnc(NC3CCN(S(=O)(=O)N4CC5(CCCCN5C(=O)CCCCCc5cccc6c5n(C)c(=O)n6C5CCC(=O)NC5=O)C4)CC3)nc21 (centres unmarked) is ____.
40

Which measured CDK2 HIBIT Protein Quantification Maximum value corresponds to CC1CCCC1N1C(=O)C2(CC2)c2cnc(NC3CCN(S(=O)(=O)N4CC5CN(C(=O)CCCCCc6ccc7c(c6)n(C)c(=O)n7C6CCC(=O)NC6=O)CC54)CC3)nc21 (centres unmarked) ?
6

Record request: CDK2 HIBIT Protein Quantification Maximum value, item CC1CCCC1N1C(=O)C2(CC2)c2cnc(NC3CCN(S(=O)(=O)N4CC5CN(C(=O)CCCCc6ccc7c(c6)n(C)c(=O)n7C6CCC(=O)NC6=O)CC5C4)CC3)nc21 (centres unmarked)
31

Quick check: CDK2 HIBIT Protein Quantification Maximum of CC1CCCC1N1C(=O)C2(CC2)c2cnc(NC3CCN(S(=O)(=O)N4CCC5(CCCN5C(=O)CCCCc5ccc6c(c5)n(C)c(=O)n6C5CCC(=O)NC5=O)C4)CC3)nc21 (centres unmarked) ?
40

Item under review: CC1CCCC1N1C(=O)C2(CC2)c2cnc(NC3CCN(S(=O)(=O)N4CCC5(CCN(C(=O)CCCCCCCCCc6cccc7c6n(C)c(=O)n7C6CCC(=O)NC6=O)C5)C4)CC3)nc21 (centres unmarked) . Reported CDK2 HIBIT Protein Quantification Maximum?
56

Looking for the measured CDK2 HIBIT Protein Quantification Maximum of `Cn1nc(N2CCC(=O)NC2=O)c2cc(F)c(C3CCN(Cc4cccc(S(=O)(=O)N5CCC(Nc6ncc7c(n6)N([C@@H]6CCC[C@@H](O)C6)C(=O)C76CC6)CC5)c4)CC3)cc21` , can you help?
79

# CDK2 HIBIT Protein Quantification Maximum lookup, item CC1CCCC1N1C(=O)C2(CC2)c2cnc(NC3CCN(S(=O)(=O)N4CC5(CCN(C(=O)Cc6ccc7c(c6)n(C)c(=O)n7C6CCC(=O)NC6=O)CC5)C4)CC3)nc21 (centres unmarked)
14

Which CDK2 HIBIT Protein Quantification Maximum value is on record for `C[C@@H]1CN(c2ccc3c(N4CCC(=O)NC4=O)nn(C)c3c2)CCN1[C@@H](C)c1cccc(S(=O)(=O)N2CC[C@H](Nc3ncc4c(n3)N([C@@H]3CCC[C@@H](O)C3)C(=O)C43CC3)[C@H](F)C2)c1` ?
92

Suppose we examine the compound CC1CCCC1N1C(=O)C2(CC2)c2cnc(NC3CCN(S(=O)(=O)N4CCC5(CCCN5C(=O)CCCc5ccc6c(c5)n(C)c(=O)n6C5CCC(=O)NC5=O)C4)CC3)nc21 (centres unmarked) ; what CDK2 HIBIT Protein Quantification Maximum value has been reported?
29
